test: Steroid pharmacokinetics after i.v. or s.c. administration; format: in vivo, CD1 mice; settings: CD1, mouse, plasma, iv, Half-life in plasma, i.v. administration, CD1 mice
readoutKind: half-life

Q: Quick one: half-life for CCCC1O[C@@H]2C[C@H]3[C@@H]4CCC5=CC(=O)C=C[C@]5(C)[C@H]4[C@@H](O)C[C@]3(C)[C@]2(C(=O)CO)O1 (stereo partly shown) [Budesonide parent, budesonide] ?
A: ~40 min

====

test: Steroid pharmacokinetics after i.v. or s.c. administration; format: in vivo, CD1 mice; conditions: CD1, mouse, plasma, iv
readoutKind: clearance (mL/min/kg)
Write the number in mL/min/kg without appending the unit.

Q: Quick one: clearance for CCCC1O[C@@H]2C[C@H]3[C@@H]4CCC5=CC(=O)C=C[C@]5(C)[C@H]4[C@@H](O)C[C@]3(C)[C@]2(C(=O)CO)O1 (stereo partly shown) [Budesonide parent, budesonide] ?
A: 121
